Origin of the recorded values: patent US9243044B2

target: T1, human fXIa (Homo sapiens, UniProt P03951); test: Chromogenic assay, fXIa; format: biochemical; settings: 100 nM
T1 construct: Human coagulation factors IIa (thrombin), Xa, XIa, XIIa, EGR-fXa; purchased Haematologic Technologies Inc (United States)
T1 sequence (P03951 19-387 limits assumed): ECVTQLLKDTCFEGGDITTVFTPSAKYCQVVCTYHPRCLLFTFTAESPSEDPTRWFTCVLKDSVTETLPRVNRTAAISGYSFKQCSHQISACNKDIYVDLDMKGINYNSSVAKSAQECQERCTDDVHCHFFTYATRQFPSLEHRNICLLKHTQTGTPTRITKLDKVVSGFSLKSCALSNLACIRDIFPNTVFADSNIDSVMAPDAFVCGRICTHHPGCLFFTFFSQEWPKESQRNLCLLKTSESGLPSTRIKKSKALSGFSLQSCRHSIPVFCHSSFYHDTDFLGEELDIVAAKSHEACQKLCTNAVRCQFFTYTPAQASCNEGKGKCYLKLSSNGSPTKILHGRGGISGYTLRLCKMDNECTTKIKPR
T1 sequence (P03951 388-625 limits assumed): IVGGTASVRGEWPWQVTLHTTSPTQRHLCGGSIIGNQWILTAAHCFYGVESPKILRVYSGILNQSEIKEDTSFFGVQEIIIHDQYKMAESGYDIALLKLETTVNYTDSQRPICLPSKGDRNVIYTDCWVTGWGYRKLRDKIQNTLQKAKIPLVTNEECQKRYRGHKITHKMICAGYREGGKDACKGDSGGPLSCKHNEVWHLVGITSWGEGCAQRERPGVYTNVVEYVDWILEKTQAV
REPORTED PROPERTY: inhibition of the activity of fXIa

[[record]]
molecule = "NAPTin-6 (protein, Sequence derived from Ancylostoma caninum or Synthetic) NPSCGENERHDECSRKECDPKCKYDGTEEKDDEKPVVCLTRVCYGDCICRDGFLRNKNGACVKAEDCE"
result = "more than 90%"

[[record]]
molecule = "NAPTin-9 (protein, Sequence derived from Ancylostoma caninum or Synthetic) NPSCGENERHDECSRKECDPKCKYDGTEEKDDEKPVVCLTRVCYGDCICRDGFLRNKNGACVKAEDCELDNMEFI"
result = "more than 90%"

